Every entry's value here was drawn from patent US9510598B2.

Recorded log P for the following compounds
# Type: physicochemical
# Test Context: HPLC on reversed phase columns, method [a]: pH 2.7, 0.1% formic acid in water and acetonitrile, linear gradient 10% to 95% acetonitrile
Measurement Kind: log P

Compound	Measurement Kind	Obs Value
COC1(C(=O)NCCC2CCOC2)CC(c2ccc3ncc(Br)cc3c2)=NO1 (racemic) [compound 823]	log P	2.27[a]
C#Cc1cnc2ccc(C3=NOC(C)(C(=O)NCc4cccc(C)n4)C3)cc2c1 (stereo not shown) [compound 691]	log P	1.43[a]
COc1cncc(CNC(=O)C2(C)CC(c3ccc4ncc(Br)cc4c3)=NO2)c1 (stereo not shown) [compound 698]	log P	1.78[a]
C#Cc1cnc2ccc(C3=NOC(C)(C(=O)NCc4ccnc(C)c4)C3)cc2c1 (stereo not shown) [compound 685]	log P	1.27[a]

* * *

# Type: physicochemical
# Test Context: HPLC on reversed phase columns, method [a]: pH 2.7, 0.1% formic acid in water and acetonitrile, linear gradient 10% to 95% acetonitrile

Compound	log P
C#Cc1cnc2ccc(C3=NOC(C)(C(=O)NCc4ccc(O)nc4)C3)cc2c1 (stereo not shown)	1.54[a]
C#Cc1cnc2ccc(C3=NOC(C)(C(=O)NCc4cccnc4OC)C3)cc2c1 (stereo not shown)	2.52[a]
C#Cc1cnc2ccc(C3=NOC(C)(C(=O)NCc4cnc(Cl)cn4)C3)cc2c1 (stereo not shown)	2.43[a]
CCn1cc(CNC(=O)C2(C#N)CC(c3ccc4ncc(Br)cc4c3)=NO2)c(C)n1 (stereo not shown)	2.51[a]

* * *

# Tested on: Septoria tritici
# Test Details: In vivo preventive test on Septoria tritici (leaf spot on wheat)
# Test Context: 500 ppm; wheat plants sprayed 24 hours before contamination; grading 21 to 28 days after contamination vs control plants
Recorded % of efficacy (protection) for the following molecules
Measurement Kind: % of efficacy (protection) (%)

Molecule	Target Desc	Obs Value
C#Cc1cnc2ccc(C3=NOC(C)(C(=O)NCC4COC(C)(C)O4)C3)cc2c1 (centres unmarked)	Septoria tritici	100
C#Cc1cnc2ccc(C3=NOC(C)(C(=O)NC4CCOCC4C)C3)cc2c1 (centres unmarked)	Septoria tritici	97
C#Cc1cnc2ccc(C3=NOC(C)(C(=O)NCc4cnn(C(C)C)c4)C3)cc2c1 (centres unmarked)	Septoria tritici	86
Cc1ccc(CNC(=O)C2(C)CC(c3ccc4ncc(Br)cc4c3)=NO2)n1C (centres unmarked)	Septoria tritici	71
CCOc1cnc2ccc(C3=NOC(C)(C(=O)NCc4cn(CC)nc4C)C3)cc2c1 (centres unmarked)	Septoria tritici	100
COc1cnc2ccc(C3=NOC(C)(C(=O)NC(C)C)C3)cc2c1 (centres unmarked)	Septoria tritici	97
C#Cc1cnc2ccc(C3=NOC(C)(C(=O)NC(C)C4CCOC4)C3)cc2c1 (centres unmarked)	Septoria tritici	100
CCn1cc(CNC(=O)C2(C)CC(c3ccc4nc(Cl)c(Br)cc4c3)=NO2)c(C)n1 (centres unmarked)	Septoria tritici	92
COC1(C(=O)NC(C)C)CC(c2ccc3ncc(Br)cc3c2)=NO1 (centres unmarked) [compound 48]	Septoria tritici	100
C=CC1(C(=O)NCC2COC(C)(C)O2)CC(c2ccc3ncc(Br)cc3c2)=NO1 (centres unmarked)	Septoria tritici	100
C#Cc1cnc2ccc(C3=NOC(C)(C(=O)NC(C)c4ccncc4)C3)cc2c1 (centres unmarked)	Septoria tritici	78
CCn1cc(CNC(=O)C2(OC)CC(c3ccc4ncc(Br)cc4c3)=NO2)c(C)n1 (centres unmarked)	Septoria tritici	100
CCCn1cc(CNC(=O)C2(CC)CC(c3ccc4ncc(Br)cc4c3)=NO2)c(C)n1 (centres unmarked)	Septoria tritici	86
CC(NC(=O)C1(C)CC(c2ccc3ncc(Br)cc3c2)=NO1)c1ccccn1 (centres unmarked)	Septoria tritici	100
C#Cc1cnc2ccc(C3=NOC(CC)(C(=O)NCc4cn(CC)nc4C)C3)cc2c1 (racemic)	Septoria tritici	100
C#Cc1cnc2ccc(C3=NOC(C)(C(=O)NC4CCC4)C3)cc2c1 (centres unmarked)	Septoria tritici	100
CCOCCCNC(=O)C1(Cc2ccccc2)CC(c2ccc3ncc(Br)cc3c2)=NO1 (centres unmarked)	Septoria tritici	70

* * *

Recorded log P for the following compounds
# Assay type: physicochemical
# Test Context: HPLC on reversed phase columns, method [a]: pH 2.7, 0.1% formic acid in water / acetonitrile, linear gradient 10% to 95% acetonitrile
Measurement Kind: log P

Compound	Obs Value
CC(C)NC(=O)C1(F)CC(c2ccc3ncc(Br)cc3c2)=NO1 (centres unmarked)	2.69[a]
C#Cc1cnc2ccc(C3=NOC(C)(C(=O)NCc4nc(C)cc(C)n4)C3)cc2c1 (centres unmarked)	2.23[a]
COc1cc(CNC(=O)C2(C)CC(c3ccc4ncc(Br)cc4c3)=NO2)ccn1 (centres unmarked)	2.54[a]
C=CC1(C(=O)NCc2cn(CC)nc2C)CC(c2ccc3ncc(Br)cc3c2)=NO1 (centres unmarked)	2.61[a]
COC1(C(=O)NC(C)C)CC(c2ccc3ncc(Br)cc3c2)=NO1 (single isomer, unassigned) [compound 285]	2.57[a]
CC1(C)OCC(CNC(=O)C2(C(F)F)CC(c3ccc4ncc(Br)cc4c3)=NO2)O1 (centres unmarked)	2.96[a]
CC(C)NC(=O)C1(C(C)O)CC(c2ccc3ncc(Br)cc3c2)=NO1 (centres unmarked)	2.23[a]
COc1cccnc1CNC(=O)C1(C)CC(c2ccc3ncc(Br)cc3c2)=NO1 (centres unmarked)	2.26[a]

* * *

# Test Context: Table 3, formula (V); method [a]: pH 2.7, 0.1% formic acid in water / acetonitrile gradient

Compound	Log P
ON=Cc1ccc2ncc(Br)cc2c1	1.88[a]
ON=Cc1cc(F)c2ncc(Br)cc2c1	2.08[a]
ON=C(Cl)c1cc2cccnc2c(F)c1F	2.04[a]
ON=C(Cl)c1ccc2ncc(I)cc2c1 [V-08]	2.63[a]
ON=C(Cl)c1ccc2ncc(Br)c(Cl)c2c1	3.16[a]
ON=C(Cl)c1ccc2ncc(Br)cc2c1	2.52[a]
ON=Cc1cc2cccnc2c(F)c1F	1.48[a]
ON=Cc1ccc2ncc(Cl)cc2c1	1.78[a]
C#Cc1cnc2c(C)cc(C=NO)cc2c1	2.21[a]
ON=Cc1ccc2ncc(Br)c(Cl)c2c1	2.43[a]
ON=Cc1ccc2ncc(I)cc2c1 [V-13]	2.08[a]
ON=C(Cl)c1ccc2ncc(I)cc2c1 [V-14]	2.77[a]
ON=Cc1cc(Cl)c2ncc(Br)cc2c1	2.40[a]

* * *

# Tested on: Botrytis cinerea
# Test Details: In vivo preventive test on Botrytis cinerea (grey mould)
# Test Context: 500 ppm; gherkin plants sprayed 24 hours before contamination; grading 4-5 days after contamination vs control plants

Compound	% of efficacy (protection) (%)
C#Cc1cnc2ccc(C3=NOC(OC)(C(=O)NC(C)CC(=O)OC)C3)cc2c1 (centres unmarked)	98
C#Cc1cnc2ccc(C3=NOC(OC)(C(=O)NCc4cn(CC)nc4C)C3)cc2c1 (racemic)	100
COC1(C(=O)NCc2cnc(C)cn2)CC(c2cc(C)c3ncc(Br)cc3c2)=NO1 (centres unmarked)	99
C#Cc1cnc2ccc(C3=NOC(C)(C(=O)NCc4cn(CC)nc4C)C3)cc2c1 (centres unmarked)	100
CC(NC(=O)C1(C)CC(c2ccc3ncc(Br)cc3c2)=NO1)c1ccccn1 (centres unmarked)	84
C#Cc1cnc2ccc(C3=NOC(C)(C(=O)NC(C)COCC)C3)cc2c1 (centres unmarked)	100
C#Cc1cnc2ccc(C3=NOC(C)(C(=O)NCc4cnn(CC)c4CC)C3)cc2c1 (centres unmarked)	98
Cc1nc(C)c(C(C)NC(=O)C2(C)CC(c3ccc4ncc(Br)cc4c3)=NO2)s1 (centres unmarked)	97

* * *

Recorded Log P for the following molecules
# Test Context: Table 3, formula (V); method [a]: pH 2.7, 0.1% formic acid in water / acetonitrile gradient

Molecule	Log P
Cc1cc(C(Cl)=NO)cc2cc(Br)cnc12 [V-19]	3.37[a]
ON=Cc1cc2cc(Br)cnc2cc1F [V-05]	2.21[a]
ON=C(Cl)c1cc(Cl)c2ncc(Br)cc2c1 [V-18]	3.10[a]
ON=C(Cl)c1cc2cc(Br)cnc2cc1F [V-06]	2.63[a]
ON=Cc1ccc2ncc(I)cc2c1 [V-07]	1.98[a]
Cc1cc(C=NO)cc2cc(Br)cnc12 [V-16]	2.61[a]
ON=C(Cl)c1cc2cc(Br)cnc2c(F)c1F [V-03]	2.92[a]

* * *

# Test system: Botrytis cinerea
# Test Details: In vivo preventive test on Botrytis cinerea (grey mould)
# Test Context: 500 ppm; gherkin plants sprayed 24 hours before contamination; grading 4-5 days after contamination vs control plants
Measurement Kind: % of efficacy (protection) (%)

Compound	Target Desc	Obs Value
CCOC(=O)CC(C)NC(=O)C1(C)CC(c2ccc3ncc(Br)cc3c2)=NO1 (mixture of isomers) [compound 505]	Botrytis cinerea	75
CCC1(C(=O)NC(C)C)CC(c2ccc3ncc(Br)cc3c2)=NO1 (stereo not shown) [compound 66]	Botrytis cinerea	100
COC1(C(=O)NC(C)C)CC(c2cc(Cl)c3ncc(Br)cc3c2)=NO1 (stereo not shown) [compound 569]	Botrytis cinerea	100
CCn1cc(CNC(=O)C2(CF)CC(c3ccc4ncc(Br)cc4c3)=NO2)c(C)n1 (stereo not shown) [compound 75]	Botrytis cinerea	93
C=CC1(C(=O)NCCCOCC)CC(c2ccc3ncc(I)cc3c2)=NO1 (stereo not shown) [compound 730]	Botrytis cinerea	85
C#Cc1cnc2ccc(C3=NOC(C)(C(=O)NC4CCC4)C3)cc2c1 (stereo not shown) [compound 120]	Botrytis cinerea	100
C#Cc1cnc2ccc(C3=NOC(C)(C(=O)NCc4cnn(Cc5ccccc5)c4)C3)cc2c1 (stereo not shown) [compound 185]	Botrytis cinerea	95
C#Cc1cnc2ccc(C3=NOC(C)(C(=O)NCc4cnn(C)c4C)C3)cc2c1 (stereo not shown) [compound 178]	Botrytis cinerea	100
CSC1(C(=O)NC(C)C)CC(c2ccc3ncc(Br)cc3c2)=NO1 (stereo not shown) [compound 530]	Botrytis cinerea	100
C#Cc1cnc2ccc(C3=NOC(C)(C(=O)NCC4CCCO4)C3)cc2c1 (stereo not shown) [compound 132]	Botrytis cinerea	98
C#Cc1cnc2ccc(C3=NOC(CC)(C(=O)NC(C)C)C3)cc2c1 (racemic) [compound 446]	Botrytis cinerea	98
CC1(C(=O)NC2CCC2)CC(c2ccc3ncc(Br)cc3c2)=NO1 (stereo not shown) [compound 234]	Botrytis cinerea	99
CC1(C(=O)NCC(F)(F)F)CC(c2ccc3ncc(Br)cc3c2)=NO1 (stereo not shown) [compound 493]	Botrytis cinerea	100
